test system: Plasmodium falciparum; assay: GSK_TCMDC: Inhibition of Plasmodium falciparum Dd2 in whole red blood cells, using parasite LDH activity as an index of growth. Test compounds present at 2uM; type: functional
measurement_kind: Inhibition (%)
# number only, unit % dropped from output

Would you please look over these solved cases?
// Inhibition lookup, compound = `O=C(NCCN1CCCCC1)N1CCCN(c2ncnc3cc(-c4ccccc4)sc23)CC1.O=C(O)C(F)(F)F` , result: 80

Looking up Oc1ccc(Cl)cc1CN1CCC2(CCCN(CC3CCC3)C2)C1 (stereo not given) , I found its Inhibition recorded as 94

The compound identified as `Cc1cc(O)c(CN(C)Cc2ccc3c(c2)OCO3)cc1C(C)C` registered its Inhibition at 74

Query CC(CN(C)C)C(=O)Nc1ccc(-c2cccc(-c3nc4ccccc4[nH]3)c2)cc1 (stereo not given) yields Inhibition of 57

Next:
Entry `Cc1cc(N2CCCN(CC3CCCCC3)CC2)nc(Nc2ccc(Br)cc2)n1` — recorded Inhibition = 54

The compound `O=C(Nc1ccc(F)cc1)c1nc2ccccc2nc1Cl` showed Inhibition equal to 62

The compound listed as C=CCOC(=O)N1CCC(CNCc2cccc(-c3ccc(-c4nc5cccc(C)c5[nH]4)cc3)c2)C1.O=C(O)C(F)(F)F (stereo not given) has a reported Inhibition of 82

Query `Cc1cccc(NC(=O)Nc2ccc(I)c(OCCN(C)C)c2)c1C` yields Inhibition of 17

Per the records, this compound ( O=C(NCCCc1ccccc1)c1csc(C2CCCN(C(=O)c3ccc(O)c(-c4ccccc4)c3)C2)n1 (stereo not given) ) has Inhibition equal to 97

---

test system: Plasmodium falciparum; test: GSK_TCMDC: Inhibition of Plasmodium falciparum Dd2 in whole red blood cells, using parasite LDH activity as an index of growth. Test compounds present at 2uM; format: functional
// NB: equality with 60% counts as FALSE; only Inhibition strictly below is TRUE

The following compounds have reported results that may help.
Request: In the record for `c1ccc(-c2nnc(-c3ccccn3)nc2NC2CCCCC2)cc1` , is Inhibition less than 60%?
Response: FALSE

Request: API: query returns whether the compound falls strictly under 60% in Inhibition. Query: `CCN1CCN(CCCNc2c3ccccc3nc3ccccc23)CC1.Cl`
Response: TRUE

Request: Find out if reported Inhibition for `CCOc1c(OC)ccc2c1CCN(CCN1CCC(NC(=O)c3ccc(-c4cccc(C(F)(F)F)c4C(F)(F)F)cc3)CC1)C2` is less than 60%
Response: TRUE

Request: Answer whether the compound `Clc1ncnc2ncn(Cc3cccc(Br)c3)c12` has Inhibition strictly less than 60%
Response: TRUE

For the next question, use this compound.
Request: Field: below-cutoff. Rule: recorded Inhibition strictly less than 60%. Subject: `Nc1ncc(-c2cccc(F)c2)cc1-c1nc2cc(F)ccc2[nH]1.O=C(O)C(F)(F)F`
Response: FALSE

---

system: Plasmodium falciparum; assay: GSK_TCMDC: Inhibition of Plasmodium falciparum Dd2 in whole red blood cells, using parasite LDH activity as an index of growth. Test compounds present at 2uM; format: functional
Decide using Inhibition alone. Strictly below 10%: class 1. Equal to or above 10%: class 0.

Sample answers from the record:
Request: Here's an entry: `O=C(/C=C/c1ccc(I)cc1)NCCCCCN1CCC(c2c[nH]c3ccccc23)CC1` . Is its Inhibition below 10%?
Response: class 1

Request: Item `Nc1nc(N)c2c(ccc3c2ccn3CCCCO)n1` : Inhibition beneath 10%, strictly?
Response: class 0

Request: Lab note: confirm whether the reported Inhibition for this molecule is below 10%, equality not counting. molecule: `COC(=O)c1ccc(N2CCN(CCCCNC(=O)c3ccc(NC(=O)c4ccc(Cl)cc4)cc3)CC2)c(OC)c1`
Response: class 1

Request: Take the molecule `O=C(O)C(F)(F)F.O=C1CCCN1CCCNCc1ccc(-c2ccc(-c3nc4cc(F)ccc4[nH]3)cc2)cc1` and say whether its Inhibition is less than 10%.
Response: class 0

Continuing:
Request: Quick check: does `Cc1cccc2nc(-c3ccc(-c4ccc(C(=O)NCCc5cn(C)cn5)cc4)s3)[nH]c12` have Inhibition under 10%?
Response: class 1

Request: API: query returns whether the molecule falls strictly under 10% in Inhibition. Query: `Cl.Clc1cccnc1N1CCN(c2ncccc2Cl)CC1`
Response: class 1

Request: Does the reported Inhibition of `CC(=O)Nc1cc(C(=O)Nc2cccc(-c3csc(-c4nc5ccccc5[nH]4)c3)c2)ccc1C` stay below 10%?
Response: class 0

Request: Item `CN(C)Cc1ccc(-c2ccc(NC(=O)c3ccc4c(=O)n(Cc5ccoc5)cnc4c3)cc2)cc1` : Inhibition beneath 10%, strictly?
Response: class 0
